Where do the numbers come from? From paper PMC11836371.

- assay method text: Cell viability assay (resazurin), BJhTERT non-transformed control
- Type: cell-based
- test conditions: human, BJhTERT, Log conc. (M) 3.71535e-6; read-out: cell viability, cytotoxicity curve (Figure3H)

compound | viability at 72 h, 3.71535e-06 M
Nc1nn(-c2ccc(CC(=O)Nc3noc4c3CCCC4)cc2)c2ccccc12 [compound 11] | 84%

* * *

- study target: human OGG1 enzyme (Homo sapiens)
- Sequence (O15527 whole entry): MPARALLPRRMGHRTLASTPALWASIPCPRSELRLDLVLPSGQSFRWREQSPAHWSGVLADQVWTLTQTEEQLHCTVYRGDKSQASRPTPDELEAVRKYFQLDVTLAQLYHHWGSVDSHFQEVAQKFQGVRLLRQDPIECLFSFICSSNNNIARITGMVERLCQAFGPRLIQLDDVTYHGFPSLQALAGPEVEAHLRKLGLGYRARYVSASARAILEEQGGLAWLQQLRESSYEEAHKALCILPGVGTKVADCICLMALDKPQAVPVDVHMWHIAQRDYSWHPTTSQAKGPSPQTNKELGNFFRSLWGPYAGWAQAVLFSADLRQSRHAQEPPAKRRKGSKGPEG
- assay method text: Differential scanning fluorimetry (DSF) thermal shift assay
- Assay type: binding
- test conditions: 99 μM

structure smiles string | study target | ∆Tm (K)
C=Cc1ccc(C(=O)NCc2cn(-c3ccccc3)nc2C)cc1 | human OGG1 enzyme (Homo sapiens) | 0.83 K
Cc1cscc1NC(=O)NCc1cccc(-n2cncn2)c1 | human OGG1 enzyme (Homo sapiens) | 0.15 K
Cc1nc(-c2ccc(CC(=O)Nc3noc4c3CCCC4)nc2)c(C)[nH]1 | human OGG1 enzyme (Homo sapiens) | 6.3 K
Cc1ccc(CNC(=O)Nc2cnn(C)c2C(F)(F)F)c(C)c1 | human OGG1 enzyme (Homo sapiens) | 0.39 K
